assay: Bioavailability in rat at 50 mg/kg, po; assay type: ADME, organism-based; conditions: in vivo
Reported endpoint: bioavailability

[Q] # bioavailability lookup, item CC(C)NC[C@H](Cc1ccc(Cl)cc1)C(=O)N1CCN(c2ncnc3c2[C@H](C)SC3)CC1
[A] > 100%
